Tested on: Human mast cells (CHMC)
Test: LD Tryptase release assay in CHMC (mast cell activation induced by FcγR cross-linking)
Assay type: cell-based
Conditions: Homo sapiens, Mast cell, anti-IgG stimulation, activity of tryptase released upon degranulation
METRIC: IC50

Solved entries:
structure_as_smiles=CN(c1ccc(Nc2ncc(F)c(Nc3ccc4c(n3)NC(=O)C(C)(C)O4)n2)cn1)C1CCOCC1 metric=IC50 measured="< 100 nM"
structure_as_smiles=C[C@H]1CN(c2ccc(Nc3ncc(F)c(Nc4ccc5c(n4)NC(=O)C(C)(C)O5)n3)cc2)CCO1 metric=IC50 measured="100 to 500 nM"

Checklist item: IC50 tested on Human mast cells (CHMC), entry `CC1(C)Oc2ccc(Nc3nc(Nc4ccc(N5CCOCC5)c(OC(F)(F)F)c4)ncc3F)nc2NC1=O` , value? > 100000 nM

Enter reported IC50 observed with Human mast cells (CHMC) for `CC1(C)Oc2ccc(Nc3nc(Nc4ccc(N5CC[C@@H](F)C5)nc4)ncc3F)nc2NC1=O` < 100 nM

What reported IC50 corresponds to `CC1(C)Oc2ccc(Nc3nc(Nc4ccc(N5CC(O)C5)nc4)ncc3F)nc2NC1=O` on Human mast cells (CHMC)? 1000 to 100000 nM

Look up IC50 with Human mast cells (CHMC) for this molecule: `CC1(C)CN(c2ccc(Nc3ncc(F)c(Nc4ccc5c(n4)NC(=O)CO5)n3)cn2)CCO1` 100 to 500 nM

What measured IC50 is associated with `CC1(C)Oc2ccc(Nc3nc(Nc4ccc(N5CCC6(CCCO6)CC5)cc4)ncc3F)nc2NC1=O` on Human mast cells (CHMC)? 100 to 500 nM

Observed IC50 on Human mast cells (CHMC) for `CC1(C)Oc2ccc(Nc3nc(Nc4ccc(C5CCOCC5)nc4)ncc3F)nc2NC1=O` , please. 100 to 500 nM

Source of measurements: patent US8618095B2
